Experiment: MELAS cybrid and Rieske KO viability enhancers – cell-based, MELAS cybrids, Rieske KO mouse fibroblasts, CellTiter-Glo, primary screen (AID 1508586);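 also: z relative to plate mean and SD of compound and empty wells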
Details: MELAS cybrid survival, low glucose, CellTiter-Glo 48 h
The source made the active and inactive calls.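 The calls were made as follows: active = mean z-score across replicates of 1.96 or higher in either the MELAS or the Rieske mutant cell line; inactive = the rest.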
Mark one answer only. Choices: active, inactive

{"compound": "CC[C@]1(O)C[C@H]2CN(CCc3c([nH]c4ccccc34)[C@@](C(=O)OC)(c3cc4c(cc3OC)N(C)[C@@H]3C45CCN4CC=C[C@@](CC)(C(OC(C)=O)[C@]3(O)C(=O)OC)[C@H]45)C2)C1 (some centres undefined)", "qualitative label": "inactive"}

Query: Write down the call the test reported for this compound. Item: COC1CC2CCC(C)[C@](O)(O2)C(=O)C(=O)N2CCCC[C@H]2C(=O)OC(C(C)CC2CCC(n3cnnn3)C(OC)C2)CC(=O)C(C)C=C(C)C(O)C(OC)C(=O)C(C)CC(C)C=CC=CC=C1C (some centres undefined)
Reply: active

Query: Write down the call the test reported for this compound. Item: `Nc1ccc(Sc2ccc(N3C(=O)c4ccc(N)cc4C3=O)cc2)cc1`
Reply: inactive

Query: Write down the call the test reported for this compound. Item: O=CC(O)C(O)C(O)CO (centres undefined)
Reply: inactive

---

For each entry below, report its inhibition value.
Assay: growth inhibition, single agents and combos, HD-MB03, cell-based, BGB or cisplatin IC20 combos, synergistic combos for chromothripsis tumors (AID 1671455);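 also: 0% = vehicle DMSO and 100% = high DMSO as cytotoxic control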
Details: HD-MB03 medulloblastoma cells, measured here: combo with BGB at IC20, at 0.5 µM, stronger effect = higher value

Below, each entry is followed by its recorded inhibition result.
{"compound": "O=c1ccn(C2CC(O)C(CO)O2)c(=O)[nH]1 (stereo not drawn)", "inhibition": "-8.35%"}
{"compound": "CC(C)(C#N)c1ccc(N2C(=O)OCc3cnc4ccc(-c5cnc6ccccc6c5)cc4c32)cc1", "inhibition": "-14.5%"}
{"compound": "Nc1ccn(C2CCC(CO)O2)c(=O)n1 (stereo not drawn)", "inhibition": "-13.9%"}
{"compound": "C[C@@H]1COCCN1c1cc(C2(S(C)(=O)=O)CC2)nc(-c2cccc3[nH]ccc23)n1", "inhibition": "11.4%"}

# per-item lookup of inhibition; items listed below
1. CC(C=CC(=O)NO)=CC(C)C(=O)c1ccc(N(C)C)cc1 (stereo not drawn)
2. C=C1C(=O)O[C@@H]2C=C(C)CCC=C(C)CC[C@@H]12
3. C=C1CCC(O)CC1=CC=C1CCCC2(C)C1CCC2C(C)C=CC(C)C(C)C (stereo not drawn)
4. COc1cccc2c1C(=O)c1c(O)c3c(c(O)c1C2=O)CC(O)(C(C)=O)CC3OC1CC(N)C(O)C(C)O1 (stereo not drawn)

Reply:
1: 79.1%; 2: 5.57%; 3: -6.27%; 4: 95.8%

# per-item lookup of inhibition; items listed below
1. CO[C@H]1/C=C/O[C@@]2(C)Oc3c(C)c(O)c4c(O)c(c5c(c4c3C2=O)=NC2(CCN(CC(C)C)CC2)N=5)NC(=O)/C(C)=C\C=C\[C@H](C)[C@H](O)[C@@H](C)[C@@H](O)[C@@H](C)[C@H](OC(C)=O)[C@@H]1C
2. Nc1ccccc1NC(=O)c1cnccn1
3. O=C1C(=Cc2cccnc2)C(=O)c2ccccc21
4. Cc1ccc(NC(=O)CCCCCC(=O)Nc2ccccc2N)cc1
5. CON=C1CN(c2nc3c(cc2F)c(=O)c(C(=O)O)cn3C2CC2)CC1CN (stereo not drawn)
6. C[n+]1ccc(-c2c3nc(c(-c4cc[n+](C)cc4)c4ccc([nH]4)c(-c4cc[n+](C)cc4)c4nc(c(-c5cc[n+](C)cc5)c5ccc2[nH]5)C=C4)C=C3)cc1
7. CC(C)OC(=O)[C@H](C)NP(=O)(OC[C@H]1O[C@@H](n2ccc(=O)[nH]c2=O)C(C)(F)[C@@H]1O)Oc1ccccc1 (stereo partly drawn)

Reply:
7.14%
-7.96%
-12%
0.828%
-16.7%
-21.5%
-6.27%

---

Assay: galactose survival enhancers in mitochondrial complex I cybrids – cell-based, galactose medium, ATP luminescence, primary screen (AID 1645843);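 also: positive z means more ATP and so rescue of galactose-driven cybrid death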
Conditions: complex I mutant cybrid cells, 72 h, stronger effect = higher value
property: z-score
Numbers only.

Below, each entry is followed by its recorded z-score result.
{"compound": "COc1cccc2c(=O)n(C(C)Cn3cccn3)cnc12 (stereo not drawn)", "numeric readout": -0.305}
{"compound": "CC(CCN1CCC(Cn2cc(CCO)nn2)CC1)CC(C)(C)C (stereo not drawn)", "numeric readout": -0.27}
{"compound": "Cc1c(N)nc([C@H](CC(N)=O)NC[C@H](N)C(N)=O)nc1C(=O)N[C@@H](C(=O)N[C@H](C)[C@@H](O)[C@H](C)C(=O)N[C@@H](C(=O)NCCc1nc(-c2ncc(C(=O)NCCC[S+](C)C)s2)cs1)[C@@H](C)O)[C@@H](O[C@@H]1O[C@@H](CO)[C@@H](O)[C@H](O)[C@@H]1O[C@@H]1O[C@H](CO)[C@@H](O)[C@@H](OC(N)=O)[C@@H]1O)c1cnc[nH]1", "numeric readout": -1.23}
{"compound": "O[C@H]1[C@H](O)[C@@H](O)[C@@H]2O[C@@H]2[C@@H]1O", "numeric readout": 0.2}

# per-item lookup of z-score; items listed below
1. COc1cc(OC)c(/C=C2/C(=O)Nc3ccccc32)c(OC)c1
2. O=C(O)c1cc(Br)ccc1NS(=O)(=O)c1ccc(Cl)cc1
3. CC(=O)/C(C)=N/O
4. CC(C)OCCNC1CCc2c(c(C(=O)N(C)Cc3ccccc3)nn2C)C1 (stereo not drawn)
5. Cc1cc(N2CCC(Cn3cc(CN)nn3)CC2)nc(-c2ccccc2O)n1

Reply:
1. -1.29
2. 0.495
3. 0.485
4. 0.48
5. -1.23

# per-item lookup of z-score; items listed below
1. CC(C)CCNc1cc(C(=O)NCCn2ccnc2)cc(S(=O)(=O)Nc2ccccc2)c1
2. CCC1(O)CC2CN(CCc3c([nH]c4ccccc34)[C@@](C(=O)OC)(c3cc4c(cc3OC)N(C)C3[C@]45CCN4CC=C[C@@](CC)([C@@H](OC(C)=O)[C@]3(O)C(=O)OC)[C@H]45)C2)C1 (stereo partly drawn)
3. O=C(O)CCCc1nc(-c2cccc([N+](=O)[O-])c2)no1
4. Cc1cc(CN(C)C(=O)c2cc(-c3cnn(C(C)C)c3)nc3cc(F)ccc23)on1
5. O=C(Nc1cccnc1)c1csc(Cc2ccccc2)n1

Reply:
[-0.47, -1.17, 0.71, -0.48, -0.815]

---

Assay: drug combination growth inhibition, ovarian cancer – cell-based, oncology-focused library, rucaparib conditional, profiling panel (AID 1508598)
Conditions: patient-derived ovarian cancer cells, CellTiter-Glo viability, 144 h; at 5 µM; OCI-P5x cells; without rucaparib; stronger effect = lower value
property: viability (%)
Numbers only, in %.

Below, each entry is followed by its recorded viability result.
{"compound": "C[C@@]1(c2nc3c(C(N)=O)cccc3[nH]2)CCCN1", "unit of measure": "%", "viability": 91.4}
{"compound": "COc1ccc(C2=N[C@@H](c3ccc(Cl)cc3)[C@H](c3ccc(Cl)cc3)N2C(=O)N2CCNC(=O)C2)c(OC(C)C)c1", "unit of measure": "%", "viability": 91.3}
{"compound": "Cc1cc2c(C(=O)NC[C@H](C)c3ccccc3)c(O)c(O)cc2c(O)c1-c1c(C)cc2c(C(=O)NC[C@H](C)c3ccccc3)c(O)c(O)cc2c1O", "unit of measure": "%", "viability": 9.17}

Let us examine a further case.
// viability lookup, compound = CCCCCOC(=O)Nc1nc(=O)n([C@@H]2O[C@H](C)[C@@H](O)C2O)cc1F (some centres undefined) , result: 122

---

Test: compounds altering viability of human ES cells (AID 493140);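 also: cells exposed to compounds for four days before counting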
Settings: human embryonic stem cell survival screen; stronger effect = higher value
Numbered stars: 1 amine (or outer) side, 2 acyl side, 3 side chain; on linkers, the order of the positions; unused ones are H or OH. Bridge positions count the residues as written; N and C are the ends. Square brackets hold non-standard residues; d marks the D form. Peptide text beside a SMILES is read from it. * marks the point of attachment. ξ: configuration not given here. ΔAla(Z-3-ureido) = NC(=O)N/C=C(\N)C(=O)O; X2 = NC1=NC(O)CC(C(N[*:1])C(=O)[*:2])N1; ξβ3hOrn = NCCCC(N)CC(=O)*; Dap = NC[CH](N)C(=O)O
For each entry below, report its survival value.
Answers are plain numbers.

# per-item lookup of survival; items listed below
1. CC(C)(C)C(=O)OCOC(=O)[C@@H]1N2C(=O)[C@@H](N=CN3CCCCCC3)[C@H]2SC1(C)C
2. CCCCCCCCCCCCCCCCOCC(CO)OC (configuration not stated)
3. NCc1ccccc1CC(=O)N[C@@H]1C(=O)N2C(C(=O)O)=C(CSc3nnnn3CC(=O)O)CS[C@H]12
4. C[C@]12CC[C@@H]3c4ccc(OS(=O)(=O)O)cc4CC[C@H]3[C@@H]1CCC2=O
5. CC/C=C\C/C=C\C/C=C\C/C=C\C=C\C(O)CCCC(=O)O (configuration not stated)
6. C/C(=C(/CCO)SSCC1CCCO1)N(C=O)Cc1cnc(C)nc1N (configuration not stated)
7. CC(C)(C)NCC(O)COc1ccccc1C1CCCC1 (configuration not stated)

Reply:
17.2
85.4
7.42
5.67
128
5.83
4.5

# per-item lookup of survival; items listed below
1. O=C1OC(CN2CCOCC2)CN1N=Cc1ccc([N+](=O)[O-])o1 (configuration not stated)
2. CC1OC(O[C@H]2/C=C/C=C/C=C/C=C/C=C/C=C/C=C/[C@H](C)[C@@H](O)[C@@H](C)[C@H](C)OC(=O)C[C@H](O)C[C@H](O)CC[C@@H](O)[C@H](O)C[C@H](O)C[C@]3(O)C[C@H](O)[C@@H](C(=O)O)[C@H](C2)O3)C(O)C(N)C1O (some centres not stated)
3. CC(C)(CS)C(=O)N1CCC[C@@H]1C(=O)O
4. c1ccc2c(c1)CCCc1cc(NCCN3CCOCC3)nnc1-2
5. CCCCC/C=C\C/C=C\C/C=C\CC1OC1CCCC(=O)O (configuration not stated)
6. CCCCC[C@H](O)C/C=C1/C(=O)C=C[C@@H]1C/C=C\CCCC(=O)O
7. C1CCN2C[C@H]3C[C@@H](CN4CCCC[C@@H]34)[C@H]2C1

Reply:
1. 5.92
2. 10.9
3. 8.75
4. 2.75
5. 114
6. 95.5
7. 10

# per-item lookup of survival; items listed below
1. C[C@@H](O)CCC[C@H](O)/C=C/[C@H]1[C@H](O)CC(=O)[C@@H]1C/C=C\CCCC(=O)O
2. O=c1[nH]c(=O)n([C@H]2C[C@@H](O)[C@@H](CO)O2)cc1C(F)(F)F
3. CCCCC[C@H](O)/C=C/[C@@H]1[C@@H](CC(=O)CCC(=O)O)[C@@H](O)C[C@H]1O
4. CCCCCCCCCCCCCC(=O)N[C@@H](C)[C@H](O)c1ccccc1
5. CN=C(NC#N)NCCSCC1N=CN=C1C (configuration not stated)
6. CCCCCCCCC1OC1CCCCCCCC(=O)O (configuration not stated)
7. C=Cc1c(C)c2cc3nc(cc4[nH]c(cc5nc(cc1[nH]2)C(C)=C5CCC(=O)O)c(CCC(=O)OC)c4C)[C@@]1(C)C3=CC=C(C(=O)OC)C1C(=O)OC (some centres not stated) (tested in a mixture with another compound)

Reply:
1: 111; 2: 0.583; 3: 104; 4: 95; 5: 16.7; 6: 92.8; 7: 12.9

# per-item lookup of survival; items listed below
1. O=C(O)CCC/C=C\C[C@H]1C(=O)C[C@@H](O)[C@@H]1/C=C/[C@@H](O)CCc1ccccc1
2. NCCCC(N)CC(=O)NC1CNC(=O)C(C2CC(O)N=C(N)N2)NC(=O)/C(=C/NC(N)=O)NC(=O)C(CO)NC(=O)C(CO)NC1=O (stereo not drawn) (ξβ3hOrn-[Dap]SS[ΔAla(Z-3-ureido)][X2]; lactam 1-C; configuration not given here)
3. C[N+](C)(CCCOc1ccccc1)c1ccccc1
4. NCC1OC(OC2C(N)CC(N)C(OC3OC(CO)C(O)C(N)C3O)C2O)C(O)C(O)C1O (configuration not stated)
5. CCCCCC(=O)/C=C/[C@@H]1[C@@H](C/C=C\CCCC(=O)O)[C@@H](O)C[C@H]1O
6. CC/C=C\C/C=C\C/C=C\CCCCCCCCCCCC(=O)O

Reply:
[102, 10.8, 5.92, 5.58, 66.1, 81.8]

# per-item lookup of survival; items listed below
1. CCCCC/C=C\C/C=C\C/C=C\C=C\C(=O)CCCC(=O)O
2. CC1CS(=O)(=O)CCN1N=Cc1ccc([N+](=O)[O-])o1 (configuration not stated)

Reply:
84.8
3.75

# per-item lookup of survival; items listed below
1. Cc1n[nH]c(=O)[nH]c1=O
2. O=C(O)C=Cc1ccc(O)c(O)c1

Reply:
1. 3.58
2. 7.75

# per-item lookup of survival; items listed below
1. CCOC(=O)[C@H](CCc1ccccc1)N[C@@H](C)C(=O)N1C(C(=O)O)C[C@@H]2CCC[C@@H]21 (some centres not stated)
2. CC(C)c1cc(/C=C(\C#N)C(=O)NCCCc2ccccc2)cc(C(C)C)c1O
3. COC(=O)[C@H]1[C@H]2C[C@@H]3c4[nH]c5cc(OC)ccc5c4CCN3C[C@H]2C[C@@H](OC(=O)/C=C/c2cc(OC)c(OC)c(OC)c2)[C@@H]1OC
4. CCCCC/C=C\C/C=C\CC1OC1C/C=C\CCCC(=O)O (configuration not stated)
5. CCCCC/C=C\C=C\C(O)CCCCCCCC(=O)O (configuration not stated)

Reply:
13.5
124
9.58
95.7
83.9

// survival lookup, molecule = CCCCCCCCCCCCCCCCOCC(COP(=O)([O-])OCC[N+](C)(C)C)OC (configuration not stated) , result: 64.4
